molecular target: Calcitonin gene-related peptide type 1 receptor (Homo sapiens, UniProt O60894+Q16602); experiment: Antagonist activity against human CGRP1 expressed in HEK293 cells assessed as inhibition of human alpha-CGRP-promoted cAMP production; format: functional, cell-based
Sequence (Q16602 whole entry, one chain of several): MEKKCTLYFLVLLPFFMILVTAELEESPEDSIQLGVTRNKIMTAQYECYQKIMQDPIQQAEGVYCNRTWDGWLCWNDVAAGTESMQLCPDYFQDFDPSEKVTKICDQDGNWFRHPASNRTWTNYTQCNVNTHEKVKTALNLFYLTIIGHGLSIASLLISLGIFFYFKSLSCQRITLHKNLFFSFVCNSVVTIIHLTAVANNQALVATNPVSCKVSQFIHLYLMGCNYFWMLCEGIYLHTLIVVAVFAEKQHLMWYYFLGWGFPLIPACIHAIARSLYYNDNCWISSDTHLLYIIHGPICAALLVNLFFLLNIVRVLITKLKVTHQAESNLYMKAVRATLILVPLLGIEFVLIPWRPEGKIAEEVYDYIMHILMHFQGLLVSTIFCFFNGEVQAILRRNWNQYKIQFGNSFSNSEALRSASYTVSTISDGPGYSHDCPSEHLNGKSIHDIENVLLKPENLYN
Recorded metric: pIC50
Schema: pIC50 number; meaning minus log10 of the concentration expressed in molar units.

Prompt: If you can, please state the reported pIC50 value of H-PTDVGPFAF-NH2 .
Completion: 6.11

----------
target: Calcitonin gene-related peptide type 1 receptor (Homo sapiens); test: Antagonist activity against human CGRP1 expressed in HEK293 cells assessed as inhibition of human alpha-CGRP-promoted cAMP production; assay type: functional, cell-based; set-up: concentration or dose not given beside the values; conditions: concentration not given here
Where a SMILES comes first, the peptide text is derived from it.
Recorded metric: inhibition (%)
The reply should contain only the number, in %.

Recorded inhibition, per entry:
Prompt: If you can, please state the reported inhibition value of CC(C)[C@H](NC(=O)[C@H](CC(=O)O)NC(=O)[C@@H](NC(=O)[C@@H]1CCCN1)[C@@H](C)O)C(=O)NCC(=O)N1CCCN1C(=O)N[C@@H](Cc1ccccc1)C(=O)N[C@@H](C)C(=O)N[C@@H](Cc1ccccc1)C(N)=O (HELM PEPTIDE1{P.T.D.V.G.[O=C(N1CCCN1[*:1])[*:2]].F.A.F.[am]}$$$$V2.0) .
Completion: 68

Prompt: If you can, please state the reported inhibition value of CC(C)[C@H](NC(=O)[C@H](CC(=O)O)NC(=O)[C@@H](NC(=O)[C@@H]1CCCN1C(=O)[C@@H](NC(=O)[C@H](N)Cc1ccccc1)C(C)C)[C@@H](C)O)C(=O)NCC(=O)N1CCC[C@H]1C(=O)N[C@@H](Cc1ccccc1)C(=O)NN(C)C(=O)N[C@@H](Cc1ccccc1)C(N)=O .
Completion: 51

Prompt: If you can, please state the reported inhibition value of CC(C)[C@H](NC(=O)[C@H](CC(=O)O)NC(=O)[C@@H](NC(=O)[C@@H]1CCCN1C(=O)[C@@H](NC(=O)[C@H](N)Cc1ccccc1)C(C)C)[C@@H](C)O)C(=O)NNC(=O)N1CCC[C@H]1C(=O)N[C@@H](Cc1ccccc1)C(=O)N[C@@H](C)C(=O)N[C@@H](Cc1ccccc1)C(N)=O .
Completion: 70

Could you now consider this next molecule?
Prompt: If you can, please state the reported inhibition value of CC(C)[C@H](NC(=O)[C@H](CC(=O)O)NC(=O)[C@@H](NC(=O)[C@@H]1CCCN1C(=O)[C@@H](NC(=O)[C@H](N)Cc1ccccc1)C(C)C)[C@@H](C)O)C(=O)NCC(=O)N1CCC[C@H]1C(=O)NN(Cc1ccccc1)C(=O)N[C@@H](C)C(=O)N[C@@H](Cc1ccccc1)C(N)=O .
Completion: 69

----------
molecular target: Calcitonin gene-related peptide type 1 receptor (Homo sapiens, UniProt O60894+Q16602); assay: Antagonist activity against human CGRP1 expressed in HEK293 cells assessed as inhibition of human alpha-CGRP-promoted cAMP production
Where a SMILES comes first, the peptide text is derived from it.
Listing: pIC50 of selected compounds
Schema: pIC50 number; meaning minus log10 of the concentration expressed in molar units.

Prompt: If you can, please state the reported pIC50 value of CC(C)[C@H](NC(=O)[C@H](CC(=O)O)NC(=O)[C@@H](NC(=O)[C@@H]1CCCN1C(=O)[C@@H](NC(=O)N(N)Cc1ccccc1)C(C)C)[C@@H](C)O)C(=O)NCC(=O)N1CCC[C@H]1C(=O)N[C@@H](Cc1ccccc1)C(=O)N[C@@H](C)C(=O)N[C@@H](Cc1ccccc1)C(N)=O .
Completion: 6.23

Others:
Prompt: If you can, please state the reported pIC50 value of CC(C)[C@H](NC(=O)[C@H](CC(=O)O)NC(=O)[C@@H](NC(=O)[C@@H]1CCCN1)[C@@H](C)O)C(=O)NCC(=O)N1CCCN1C(=O)N[C@@H](Cc1ccccc1)C(=O)N[C@@H](C)C(=O)N[C@@H](Cc1ccccc1)C(N)=O (HELM PEPTIDE1{P.T.D.V.G.[O=C(N1CCCN1[*:1])[*:2]].F.A.F.[am]}$$$$V2.0) .
Completion: 5.35

Prompt: If you can, please state the reported pIC50 value of CC(C)[C@H](NC(=O)[C@H](CC(=O)O)NC(=O)[C@@H](NC(=O)[C@@H]1CCCN1C(=O)[C@@H](NC(=O)[C@@H](N)Cc1ccccc1)C(C)C)[C@@H](C)O)C(=O)NNC(=O)N1CCC[C@H]1C(=O)N[C@@H](Cc1ccccc1)C(=O)N[C@@H](C)C(=O)N[C@@H](Cc1ccccc1)C(N)=O .
Completion: 7.17

Prompt: If you can, please state the reported pIC50 value of CC(C)[C@H](NC(=O)[C@H](CC(=O)O)NC(=O)[C@@H](NC(=O)[C@@H]1CCCN1C(=O)[C@@H](NC(=O)[C@@H](N)Cc1ccccc1)C(C)C)[C@@H](C)O)C(=O)NCC(=O)N1CCC[C@H]1C(=O)NN(Cc1ccccc1)C(=O)N[C@@H](C)C(=O)N[C@@H](Cc1ccccc1)C(N)=O .
Completion: 5.24

Prompt: If you can, please state the reported pIC50 value of CC(C)[C@H](NC(=O)[C@H](CC(=O)O)NC(=O)[C@@H](NC(=O)[C@@H]1CCCN1C(=O)[C@@H](NC(=O)[C@@H](N)Cc1ccccc1)C(C)C)[C@@H](C)O)C(=O)NCC(=O)N1CCC[C@H]1C(=O)N[C@@H](Cc1ccccc1)C(=O)NN(C)C(=O)N[C@@H](Cc1ccccc1)C(N)=O .
Completion: 5.45

Prompt: If you can, please state the reported pIC50 value of CC(C)[C@H](NC(=O)[C@H](CC(=O)O)NC(=O)[C@@H](NC(=O)[C@@H]1CCCN1C(=O)[C@@H](NC(=O)[C@@H](N)Cc1ccccc1)C(C)C)[C@@H](C)O)C(=O)N[C@H]1CC[C@H]2CC[C@@H](C(=O)N[C@@H](Cc3ccccc3)C(=O)N[C@@H](C)C(=O)N[C@@H](Cc3ccccc3)C(N)=O)N2C1=O .
Completion: 6.97

Prompt: If you can, please state the reported pIC50 value of CC(C)[C@H](NC(=O)N(CC(=O)O)NC(=O)[C@@H](NC(=O)[C@@H]1CCCN1C(=O)[C@@H](NC(=O)[C@@H](N)Cc1ccccc1)C(C)C)[C@@H](C)O)C(=O)NCC(=O)N1CCC[C@H]1C(=O)N[C@@H](Cc1ccccc1)C(=O)N[C@@H](C)C(=O)N[C@@H](Cc1ccccc1)C(N)=O (HELM PEPTIDE1{F.V.P.T.[O=C(O)CN(N[*:1])C(=O)[*:2]].V.G.P.F.A.F.[am]}$$$$V2.0) .
Completion: 6.42
